- Test system: UACC-62 melanoma
- RUN_DESCRIPTION: NCI-60 one-dose screen, 48 h (100 = growth as untreated, 0 = no growth, -100 = all killed)
- CONDITIONS: 10 µM unless noted
About 83,000 compounds went through this panel and 20% of them were active in at least one assay; those are over-represented in the sample as a whole.
METRIC_NAME: growth (%)
I only need the number, in %, no unit after it.

Before answering, review these 4 worked examples.
COc1ccc2c(c1)C/C(=C\c1cc(-c3ccc4c(c3)OCO4)n[nH]1)C2=O = 90.3
CCOC(=O)c1ccc2c(c1)[n+](=O)c(C(=O)C1CCCS1)c(C(F)(F)F)n2[O-] (centres undefined) = -80.4
COc1cc2nc(Cl)nc(Nc3cccc(C(=O)/C=C/c4ccc(Br)cc4)c3)c2cc1OC = 81.5
O=C(NC1=CC(=O)c2ccccc2C1=O)c1ccccc1 = 15

Ask: State growth on UACC-62 melanoma. Entry: "Cc1nn2c(-c3nc4cc(Cl)c(Cl)cc4[nH]3)c(-c3ccc(F)cc3)nc2s1"
Result: 15.9

Ask: State growth on UACC-62 melanoma. Entry: "Cc1cc(C)n(Cc2cc(C(C)(C)C)cc(C(C)(C)C)c2)c(=O)c1C#N"
Result: 72.8

Ask: State growth on UACC-62 melanoma. Entry: "COc1cc(/C=C/c2cc(/C=C/c3ccc(O)c(OC)c3)n(-c3ccc(Cl)cc3)c(=O)n2)ccc1O"
Result: 80.6

Ask: State growth on UACC-62 melanoma. Entry: "CC1(C)C(=O)/C(=C\c2cccnc2)C[C@]2(C)[C@H]3CC[C@@H]4[C@@H](C(=O)/C=C/c5ccncc5)CC[C@@]4(C)[C@]3(C)CC[C@@H]12"
Result: -26.7

Ask: State growth on UACC-62 melanoma. Entry: "Cn1cc(-c2csc(-c3cn(C(=O)OC(C)(C)C)c4ccccc34)n2)c2cccnc21"
Result: 62.1

----------
- Tested on: NCI/ADR-RES ovarian
- RUN_DESCRIPTION: NCI-60 one-dose screen, 48 h
- CONDITIONS: 10 µM unless noted
- Procedure: Growth inhibition of the NCI/ADR-RES human […] tumor cell line is measured as a screen for anti-cancer activity. Cells are grown in 96 well plates and exposed to the test compound for 48 hours. Compounds are tested at a single concentration, which is 10^-5 M for most compounds. The reported endpoint is percent growth (GI% or GIPRCNT), where numbers from 0 - 100% represent growth inhibition, and numbers from -100% - 0 represent cell death. For example, a value of 40 represents 60% growth inhibition. […]
This is part of a sample that, as a whole, favours compounds with a hit. Of some 83,000 tested, about 20% had one in any assay. Calls of active or inactive are those of the source. The calls were made as follows: active = growth percent below 10; inactive = the rest.
Write down one outcome, taken from active, inactive

These solved cases illustrate the format of a correct answer.
Cc1ccc2c(c1)c(-c1nc(-c3c[nH]c4ncccc34)cs1)cn2C = inactive
CC[C@]12C=CCN3CC[C@@]4(c5cc([C@H]6CCC(=O)N6)c(OC)cc5N(C)[C@H]4[C@@](O)(C(=O)OC)[C@@H]1OC(C)=O)[C@@H]32 = inactive
CC(C)(C)c1ccc(OP(=S)(N/N=C/c2ccccc2O)Oc2ccc(C(C)(C)C)cc2)cc1 = inactive
Clc1ccc(Cn2cc(-c3nc4ccc(Br)nc4n3Cc3ccc(Cl)cc3)c3cccnc32)cc1 = inactive
NNC(=O)c1nc2ccccc2[nH]1 = inactive
CC/C=C\C[C@H]1CC=C2C(=O)C=C[C@@H]2CC=CCCCC(=O)O[C@@H](CCCCC)CC=C2C(=O)C=C[C@@H]2CC=CCCCC(=O)O[C@@H](CCCCC)CC=C2C(=O)C=C[C@@H]2CC=CCCCC(=O)O[C@@H](CCCCC)CC=C2C(=O)C=C[C@@H]2CC=CCCCC(=O)O1 = inactive
Cc1cc2nc3c4cc(O)ccc4n(CCN(C)C)c3nc2cc1C = active
COc1ccc2c(c1)c1nc3cc(C)c(C)cc3nc1n2CCN(C)C = active

Ask: Outcome logged for "O=C(/C=C/c1ccc2ccccc2c1)Nc1ncc(Cc2ccccc2)s1" in this assay:
Result: inactive

Ask: Outcome logged for "O=c1c2sc3ncc(Br)cc3c2ncn1-c1cccc(Cl)c1" in this assay:
Result: inactive

Ask: Outcome logged for "Nc1ncnc2nc(Br)[nH]c12" in this assay:
Result: inactive

Ask: Outcome logged for "Cc1ccc(N(CC(=O)Nc2ccc(S(=O)(=O)NC3CCN(C)CC3)cc2)S(=O)(=O)c2ccc(Cl)cc2)cc1" in this assay:
Result: inactive

Ask: Outcome logged for "Cc1ccc(-c2nc([P+](c3ccccc3)(c3ccccc3)c3ccccc3)c(N3CCOCC3)o2)cc1" in this assay:
Result: inactive

Ask: Outcome logged for "O=c1[nH]c(=S)[nH]c2nc[nH]c12" in this assay:
Result: inactive

Ask: Outcome logged for Cc1ccc(-c2nc3ccc(Cl)cc3c(=O)n2N2C(=O)CSC2c2ccccc2Cl)cc1 (stereo not drawn) in this assay:
Result: inactive

Ask: Outcome logged for "c1ccc(-c2nc(Nc3ccc(-c4nc5ccccc5[nH]4)cc3)nc(N3CCOCC3)n2)cc1" in this assay:
Result: active

Ask: Outcome logged for "CC(=O)Oc1ccccc1C(=O)/C=C/c1cccc([N+](=O)[O-])c1" in this assay:
Result: inactive

Ask: Outcome logged for "C=C(C)[C@@H]1CC[C@]2(C(=O)O)CC[C@]3(C)[C@H](CC[C@@H]4[C@@]5(C)C/C(=C/c6cccc(I)c6)C(=O)C(C)(C)[C@@H]5CC[C@]43C)[C@@H]12" in this assay:
Result: inactive

Numbers sourced from PubChem BioAssay (NCI).
